From: patent US20240218054A1

- target_or_system: T1, recombinant YFV E protein (soluble E, sE; YFV Asibi strain) (Yellow fever virus, Asibi strain, UniProt Q6DV88 286-678)
- T1 construct: also called YFV E antigen; YFV E monomer
- T1 sequence (Q6DV88 286-678): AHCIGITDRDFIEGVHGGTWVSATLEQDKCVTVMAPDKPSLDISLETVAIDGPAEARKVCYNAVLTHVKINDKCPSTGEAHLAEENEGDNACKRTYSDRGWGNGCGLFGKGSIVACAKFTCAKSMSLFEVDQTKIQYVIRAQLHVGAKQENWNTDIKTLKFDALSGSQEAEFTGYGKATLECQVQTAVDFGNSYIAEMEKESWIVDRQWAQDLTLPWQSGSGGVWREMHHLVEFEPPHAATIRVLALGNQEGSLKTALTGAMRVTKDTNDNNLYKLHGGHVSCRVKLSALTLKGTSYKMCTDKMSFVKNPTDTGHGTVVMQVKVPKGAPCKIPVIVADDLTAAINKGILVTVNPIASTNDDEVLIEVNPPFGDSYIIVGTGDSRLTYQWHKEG
- assay_overview: BLI monovalent (IgG on tip)
pKd: −log10 of the molar value.
Listed here: items and their measured pKd.

{"columns": ["binder", "qualifier", "pKd"],
 "data": [
  ["ADI-42114 (antibody, V domains shown, full-length IgG; also called Antibody Number 143) VH: EVQLLESGGGLVKPGGSLRLSCAASGFTFSSYSMNWVRQAPGKGLEWVSSISSSSSYIYYADSVKGRFTISRDNAKNSLYLQMNSLRAEDTAVYYCARDSWGPFDYWGQGTLVTVSS VL: QSVLTQPPSVSAAPGQKVTISCSGSSSNIGNNYVSWYQQLPGTAPKLLIYDNNKRPSGIPDRFSGSKSGTSATLGITGLQTGDEADYYCGTWDSSLSAKVFGGGTKLTVL", "<", 7.00],
  ["ADI-45127 (antibody, V domains shown, full-length IgG; also called Antibody Number 101) VH: EVQLVESGPVLVKPTETLRLTCTVSGFSLSNTKLGVSWIRQPPGKALEWLAHIFSNAEKSSSKSLKSRLSISQDTSKSLVVLTMTNMDPVDTATYFCARIPVEYGTPRGSFDTWGQGTTVTVSS VL: QSVLTQPPSASGSPGQSVTISCAGTRSDVGGYNFVSWYQQHPGKAPKLLIYEVNKRPSGVPDRFSGSKSANTASLTVSGLQAEDEAEYFCSSYGGNNDLVFGGGTKVTVL", "=", 8.17]
]}
